Data credit: patent US9802899B2

# protocol.text: Determination of the log P values by HPLC (formic acid method)
# Format: physicochemical
# assay.context: reversed-phase column (C 18), acidic range (pH 3.4), 55° C.
measurement.type: log P

Completed entries (count: 3):
molecule	log P
O=C(Nc1ccn(-c2ncccc2F)n1)c1occc1I [Compound I-1-582]	2.16
N#Cc1c(F)cccc1-n1ccc(NC(=O)c2cccnc2C(F)(F)F)n1 [Compound I-1-618]	2.26
Cc1nn(C)c(C(=O)Nc2ccn(-c3ncc(F)cc3F)n2)c1C(F)F [Compound I-1-514]	2.13

a: O=C(Nc1ccn(-c2c(F)cccc2F)n1)c1cccnc1Cl [Compound I-1-95]
b: Cc1cc(NC(=O)c2ccccc2Cl)nn1-c1ccc(F)cc1F [Compound I-1-212]
In: Which of these two has the smaller recorded log P: a or b ? Write down the label attached to your selection.
Out: a
